Every entry's value here was drawn from paper PMC11760621.

The listing below reports IC50 for compounds tested on ACE-2: SARS-CoV-2 Spike (RBD) (Homo sapiens, UniProt Q9BYF1).
Sequence (Q9BYF1 18-740): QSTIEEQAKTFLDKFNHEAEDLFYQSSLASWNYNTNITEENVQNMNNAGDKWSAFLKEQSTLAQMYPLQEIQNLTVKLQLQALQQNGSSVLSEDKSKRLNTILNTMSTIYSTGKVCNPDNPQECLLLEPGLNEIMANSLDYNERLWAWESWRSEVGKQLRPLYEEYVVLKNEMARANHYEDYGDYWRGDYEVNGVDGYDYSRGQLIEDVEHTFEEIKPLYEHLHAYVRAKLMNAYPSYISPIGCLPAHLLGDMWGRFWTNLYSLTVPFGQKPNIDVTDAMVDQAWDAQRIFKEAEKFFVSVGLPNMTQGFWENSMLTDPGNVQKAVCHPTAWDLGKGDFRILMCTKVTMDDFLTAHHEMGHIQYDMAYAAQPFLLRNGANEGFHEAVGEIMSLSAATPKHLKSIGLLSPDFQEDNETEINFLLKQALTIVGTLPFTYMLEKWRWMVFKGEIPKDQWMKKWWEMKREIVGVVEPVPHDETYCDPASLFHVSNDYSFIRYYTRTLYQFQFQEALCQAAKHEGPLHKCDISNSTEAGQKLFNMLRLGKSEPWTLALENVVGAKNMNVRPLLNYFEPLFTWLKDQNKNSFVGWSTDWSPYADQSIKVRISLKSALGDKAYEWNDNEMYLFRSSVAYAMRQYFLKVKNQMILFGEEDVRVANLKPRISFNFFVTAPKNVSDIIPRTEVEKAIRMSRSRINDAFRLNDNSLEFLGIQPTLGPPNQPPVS
measurement_label: IC50 (µM)

1) CCCCC(=O)OCCCC(C)COC(=O)c1ccccc1C(=O)OCC(C)CCCOC(=O)CCCC (stereo not shown)    10.4
2) COc1cc(O)c2c(=O)oc3cc(O)cc(C)c3c2c1    11.7
3) COc1cc(O)c2c(=O)oc3c(c2c1)C(C)CC3=O (stereo not shown)    12.5
4) CC1CCC2C(C1)c1ccccc1C1CCCCC(C)N12 (stereo not shown)    15.5

----------
biological target: TNF-α: TNFR2 (Homo sapiens, UniProt P01375); construct: purchased BPS bioscience; test: TNFR2: TNF-α [Biotinylated] inhibitor screening assay; assay type: binding; conditions: in vitro kit; mean ± SD; read-out: IC50, TNF-α: TNFR2 inhibitory effect
Sequence (P01375 77-233 limits assumed): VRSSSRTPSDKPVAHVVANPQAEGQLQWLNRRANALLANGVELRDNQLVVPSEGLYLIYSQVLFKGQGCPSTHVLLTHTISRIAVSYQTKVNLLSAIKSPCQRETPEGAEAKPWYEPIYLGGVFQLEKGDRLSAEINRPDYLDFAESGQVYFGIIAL
pIC50: −log10 of the molar value.
This listing pairs compounds with measured pIC50.
measurement_label: pIC50

1. CC1CCC2C(C1)c1ccccc1C1CCCCC(C)N12 (centres unmarked)    5.06
2. CCCCC(=O)OCCCC(C)COC(=O)c1ccccc1C(=O)OCC(C)CCCOC(=O)CCCC (centres unmarked)    5.27
